target: Honey (A2) toxin (UniProt Q45894 2-1296)
Sequence (Q45894 2-1296): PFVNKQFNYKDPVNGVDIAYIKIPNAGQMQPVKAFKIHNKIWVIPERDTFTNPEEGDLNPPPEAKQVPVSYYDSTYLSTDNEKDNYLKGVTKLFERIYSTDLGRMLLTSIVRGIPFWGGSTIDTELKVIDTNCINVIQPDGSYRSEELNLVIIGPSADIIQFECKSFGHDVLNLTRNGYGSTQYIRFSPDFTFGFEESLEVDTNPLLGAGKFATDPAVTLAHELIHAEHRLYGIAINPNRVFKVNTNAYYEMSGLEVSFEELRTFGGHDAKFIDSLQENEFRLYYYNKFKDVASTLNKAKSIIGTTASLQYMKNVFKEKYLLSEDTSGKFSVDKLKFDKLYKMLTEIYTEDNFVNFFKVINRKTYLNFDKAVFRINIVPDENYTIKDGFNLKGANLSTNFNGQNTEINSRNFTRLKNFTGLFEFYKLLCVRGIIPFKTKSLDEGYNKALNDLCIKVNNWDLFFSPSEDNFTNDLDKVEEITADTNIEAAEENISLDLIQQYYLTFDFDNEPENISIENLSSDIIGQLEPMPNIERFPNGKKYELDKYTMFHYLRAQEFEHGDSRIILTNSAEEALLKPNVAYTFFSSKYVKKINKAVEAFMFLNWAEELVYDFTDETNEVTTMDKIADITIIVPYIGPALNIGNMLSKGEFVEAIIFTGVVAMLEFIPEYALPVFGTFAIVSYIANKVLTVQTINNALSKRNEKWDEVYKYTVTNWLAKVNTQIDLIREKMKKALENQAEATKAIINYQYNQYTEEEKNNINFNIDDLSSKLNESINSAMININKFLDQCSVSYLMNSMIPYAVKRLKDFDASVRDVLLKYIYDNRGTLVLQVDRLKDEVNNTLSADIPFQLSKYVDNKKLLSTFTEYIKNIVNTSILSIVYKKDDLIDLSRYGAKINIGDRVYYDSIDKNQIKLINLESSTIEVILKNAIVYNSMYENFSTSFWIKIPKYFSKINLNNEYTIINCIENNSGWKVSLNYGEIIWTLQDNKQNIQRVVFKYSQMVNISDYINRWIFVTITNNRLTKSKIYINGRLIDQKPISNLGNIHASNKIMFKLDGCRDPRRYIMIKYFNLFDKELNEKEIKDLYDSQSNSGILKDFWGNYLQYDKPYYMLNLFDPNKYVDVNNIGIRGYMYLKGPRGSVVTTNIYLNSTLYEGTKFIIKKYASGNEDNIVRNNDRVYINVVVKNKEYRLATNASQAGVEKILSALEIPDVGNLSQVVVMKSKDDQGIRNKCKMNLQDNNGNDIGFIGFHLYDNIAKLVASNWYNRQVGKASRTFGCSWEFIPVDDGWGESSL
// reported pKd for each item listed
A value of pKd is the negative decimal logarithm of a concentration given in moles per litre.

Solved entries:
3D12.3-1 (RAZ1) (antibody, V domains shown) VH: QVQLVQSGGGVVHPGRSLKLSCAGSGFTFSDYDMHWVRQAPGKGLEWVAVMWFDGTEKYSAESVKGRFTISRDNSKNTLFLQMNSLRADDTAVYYCAREPDWLLWGDRGALDVWGQGTTVTVSS VL: DIVMTQSPSTLSASVGDRVTITCWASQSISSRLAWYQQKPGKAPKLLMYEATSLGSGVPSRFSGSGSGTEFTLTISSLQPDDFAAYYCQHYDTYPYTFGQGTKLEIKR	10.15
3D12 (wild type, as tested in Table 12) (antibody, V domains shown) VH: QVQLVQSGGGVVHPGRSLKLSCAGSGFTFSDYDMHWVRQAPGKGLEWVAVMWFDGTEKYSAESVKGRFTISRDNSKNTLFLQMNSLRADDTAVYYCAREPDWLLWGDRGALDVWGQGTTVTVSS VL: DIVMTQSPSTLSASVGDRVTITCRASQSISSWLAWYQQKPGKAPKLLMYEASSLESGVPSRFSGSGSGTEFTLTISSLQPDDFAAYYCQHYNTYPYTFGQGTKLEIKR	8.66
AR1 (affinity improved HuC25) (antibody, V domains shown) VH: QVQLQESGGGLVQPGGSLRLSCAASGFTFSDYYMYWVRQAPGKGLEWVATISDGGSYTYYPDSVKGRFTISRDNSKNTLYLQMNSLRAEDTAIYYCSRYRYDDAMDYWGQGTLVTVSS VL: EIVLTQSPATLSLSPGERATISCRASESVDSYGHSFMQWYQQKPGQAPRLLIYRASNLEPGIPARFSGSGSGTDFTLTISSLEPEDFAVYYCQQGNEVPFTFGQGTKVEIKR	7.00

Prompt line: pKd lookup needed for WR1(T) (HuC25 derivative) (antibody, V domains shown) VH: QVQLQESGGGLVQPGGSLRLSCAASGFTSSDHYMYWVRQAPGKGLEWVATISDGGSYTYYPDSVKGRFTTSRDNSKNTLYLQMNSLRAEDTAIYYCSRYRYDDAMDYWGQGTLVTVSS VL: EIVLTQSPATLSLSPGERATISCRASESVDSYGHSFMQWYQQKPGQAPRLLIYRASNLEPGIPARFSGSGSGTDFTLTISSLEPEDFAVYYCQQGNEVPFTFGQGTKVEIKR , thanks.
Response line: 8.43

Prompt line: Entry 3D12.3-10 (antibody, V domains shown) VH: QVQLVQSGGGVVHPGRSLKLSCAGSGFTFSDYDMHWVRQAPGKGFEWVAVMWFDGTEKYSAESVKGRFTISRDNSKNTLFLQMNSLRADDTAVYYCAREPDRLLWGDRGALDVWGQGTTVTVSS VL: DIVMTQSPSTLSASVGDRVTITCRASQSISSWLAWYQQKPGKAPKLLMYEASSLGRGVPSRFSGSGSGTEFTLTISSLQPDDFAAYYCQHYSTYPYTFGQGTKLEIKR : reported pKd = ?
Response line: 10.09

Prompt line: Item under review: WR1(V) (HuC25 derivative) (antibody, V domains shown) VH: QVQLQESGGGLVQPGGSLRLSCAASGFTSSDHYMYWVRQAPGKGLEWVATISDGGSYTYYPDSVKGRFTVSRDNSKNTLYLQMNSLRAEDTAIYYCSRYRYDDAMDYWGQGTLVTVSS VL: EIVLTQSPATLSLSPGERATISCRASESVDSYGHSFMQWYQQKPGQAPRLLIYRASNLEPGIPARFSGSGSGTDFTLTISSLEPEDFAVYYCQQGNEVPFTFGQGTKVEIKR . Reported pKd?
Response line: 8.05

Prompt line: What value of pKd has been reported for the following binder? Humanized C25 (HuC25) (antibody, V domains shown) VH: QVQLQESGGGLVQPGGSLRLSCAASGFTFSDYYMYWVRQAPGKGLEWVATISDGGSYTYYPDSVKGRFTISRDNSKNTLYLQMNSLRAEDTAMYYCSRYRYDDAMDYWGQGTLVTVSS VL: EIVLTQSPATLSLSPGERATISCRASESVDSYGHSFMQWYQQKPGQAPRLLIYRASNLEPGIPARFSGSGSGTDFTLTISSLEPEDFAVYYCQQSNEDPFTFGQGTKVEIKR
Response line: 6.60

Prompt line: Tell me the measured pKd of 3D12.3-8 (antibody, V domains shown) VH: QVQLVQSGGGVVHPGRSLKLSCAGSGFTFSDYDMHWVRQAPGKGLEWVAVIWFDGTEKYSAESVKGRFTISRDNSKNTLFLQMNSLRADDTAVYYCAREPDWLLWGDRGALDVWGQGTTVTVSS VL: DIVMTQSPSTLSASVGDRVTITCRASQSISSWLAWYQQKPGKAPKLLMYGASSLGSGVPSRFSGSGSGTEFTLTISSLHPDDFAAYYCQHYNTYPYTFGQGTKLEIKR , please.
Response line: 10.17

The measurements presented in this section are drawn from patent US20090324606A1.
